System: RS4; 11 with G101V mutation
experimental.protocol: In vitro anti-proliferation assay (ATPlite luminescence) in BCL-2-dependent ALL cell line RS4;11 with G101V mutation
Assay type: cell-based
test.settings: cellular anti-proliferative IC50, about 72 hours, medium with 10% FBS, ATPlite; read-out: RS411-G101V IC50
pIC50: −log10 of the molar value.
property.label: pIC50

>>> value_reported("CC(C)Oc1ccccc1[C@H]1CN(Cc2cnc(N3CCOCC3)c(OC(C)C)c2)CCN1C1CC2(CCN(c3ccc(C(=O)NS(=O)(=O)c4ccc(NCC5CCC(C)(O)CC5)c([N+](=O)[O-])c4)c(N4c5cc6cc[nH]c6nc5O[C@H]5COCC[C@@H]54)c3)CC2)C1 (stereo partly shown)")
7.38
>>> value_reported("Cc1cc2c(CN3CCN(C4CC5(CCN(c6ccc(C(=O)NS(=O)(=O)c7cc8c(c([N+](=O)[O-])c7)N[C@H](C7CCOCC7)CO8)c(N7c8cc9cc[nH]c9nc8O[C@H]8COCC[C@@H]87)c6)CC5)C4)[C@H](c4ccccc4C)C3)cnc(N3CCOC[C@@H]3C)c2o1")
7.85
>>> value_reported("COc1nc(CN2CCN(C3CC4(CCN(c5ccc(C(=O)NS(=O)(=O)c6ccc(NCC7CCC(C)(O)CC7)c([N+](=O)[O-])c6)c(N6c7cc8cc[nH]c8nc7O[C@H]7COCC[C@@H]76)c5)CC4)C3)[C@@H](c3ccccc3OC(C)C)C2)ccc1C (stereo partly shown)")
7.48
>>> value_reported("CC(C)Oc1ccccc1[C@@H]1CN([C@H]2COCc3c2ccc(F)c3F)CCN1C1CC2(CCN(c3ccc(C(=O)NS(=O)(=O)c4cc5c(c([N+](=O)[O-])c4)N[C@H](C4CCOCC4)CO5)c(N4c5cc6cc[nH]c6nc5O[C@H]5COCC[C@@H]54)c3)CC2)C1")
7.92

---

IC50 listing for selected compounds.
System: RS4; 11 with G101V mutation
experimental.protocol: In vitro anti-proliferation assay (ATPlite luminescence) in BCL-2-dependent ALL cell line RS4;11 with G101V mutation
Type: cell-based
test.settings: cellular anti-proliferative IC50, about 72 hours, medium with 10% FBS, ATPlite; read-out: RS411-G101V IC50
property.label: IC50 (nM)

>>> value_reported("CC(C)Oc1ccccc1[C@@H]1CN([C@H]2CCOc3cc(F)c(F)cc32)CCN1C1CC2(CCN(c3ccc(C(=O)NS(=O)(=O)c4cc5c(c([N+](=O)[O-])c4)N[C@H](C4CCOCC4)CO5)c(N4c5cc6cc[nH]c6nc5O[C@H]5COCC[C@@H]54)c3)CC2)C1 [Example 210]")
37.8
>>> value_reported("Cc1ccccc1[C@@H]1CN(Cc2cnc3c(c2)OCCO3)CCN1C1CC2(CCN(c3ccc(C(=O)NS(=O)(=O)c4ccc(NCC5CCC(C)(O)CC5)c([N+](=O)[O-])c4)c(N4c5cc6cc[nH]c6nc5O[C@H]5COCC[C@@H]54)c3)CC2)C1 (stereo partly shown) [Example 125]")
13.9
>>> value_reported("CC(C)Oc1ccccc1[C@@H]1CN(Cc2ccc(N3CCOC[C@@H]3C)nc2)CCN1C1CC2(CCN(c3ccc(C(=O)NS(=O)(=O)c4cc5c(c([N+](=O)[O-])c4)N[C@H](C4CCOCC4)CO5)c(N4c5cc6cc[nH]c6nc5O[C@H]5COCC[C@@H]54)c3)CC2)C1 [Example 260]")
8.65
>>> value_reported("CC(C)Oc1ccccc1[C@H]1CN(Cc2ccc(N3CCOCC3)cn2)CCN1C1CC2(CCN(c3ccc(C(=O)NS(=O)(=O)c4ccc(NCC5CCC(C)(O)CC5)c([N+](=O)[O-])c4)c(N4c5cc6cc[nH]c6nc5O[C@H]5COCC[C@@H]54)c3)CC2)C1 (stereo partly shown) [Example 128]")
22.2

---

Test system: RS4; 11 with G101V mutation
experimental.protocol: In vitro anti-proliferation assay (ATPlite luminescence) in BCL-2-dependent ALL cell line RS4;11 with G101V mutation
Format: cell-based
test.settings: cellular anti-proliferative IC50, about 72 hours, medium with 10% FBS, ATPlite; read-out: RS411-G101V IC50
pIC50: −log10 of the molar value.
pIC50 listing for selected compounds.
property.label: pIC50

>>> value_reported("COc1cc(CN2CCN(C3CC4(CCN(c5ccc(C(=O)NS(=O)(=O)c6ccc(NCC7CCC(C)(O)CC7)c([N+](=O)[O-])c6)c(N6c7cc8cc[nH]c8nc7O[C@H]7COCC[C@@H]76)c5)CC4)C3)[C@@H](c3ccccc3OC(C)C)C2)cnc1C (stereo partly shown) [Example 135]")
7.95
>>> value_reported("CC(C)Oc1ccccc1[C@@H]1CN([C@@H](C)c2ccc(F)c(F)c2)CCN1C1CC2(CCN(c3ccc(C(=O)NS(=O)(=O)c4cc5c(c([N+](=O)[O-])c4)N[C@H](C4CCOCC4)CO5)c(N4c5cc6cc[nH]c6nc5O[C@H]5COCC[C@@H]54)c3)CC2)C1 [Example 243]")
7.65
>>> value_reported("CC(C)Oc1ccccc1[C@@H]1CN([C@@H]2CCOc3c2ccc(F)c3F)CCN1C1CC2(CCN(c3ccc(C(=O)NS(=O)(=O)c4cc5c(c([N+](=O)[O-])c4)N[C@H](C4CCOCC4)CO5)c(N4c5cc6cc[nH]c6nc5O[C@H]5COCC[C@@H]54)c3)CC2)C1 [Example 212]")
7.48
>>> value_reported("CC(C)Oc1ccccc1[C@@H]1CN(Cc2ccc(F)c(F)c2)CCN1C1CC2(CCN(c3nc(N4c5cc6cc[nH]c6nc5O[C@H]5COCC[C@@H]54)c(C(=O)NS(=O)(=O)c4cc5c(c([N+](=O)[O-])c4)N[C@H](C4CCOCC4)CO5)cc3F)CC2)C1 [Example 234]")
6.74

---

Test system: RS4; 11 with G101V mutation
experimental.protocol: In vitro anti-proliferation assay (ATPlite luminescence) in BCL-2-dependent ALL cell line RS4;11 with G101V mutation
Type: cell-based
test.settings: cellular anti-proliferative IC50, about 72 hours, medium with 10% FBS, ATPlite; read-out: RS411-G101V IC50
Method: Cell antiproliferation was assayed by PerkinElmer ATPlite™ Luminescence Assay System. Briefly, the various test cancer cell lines were plated at a density of about 1×10^4 cells per well in Costar 96-well plates, and were incubated with different concentrations of compounds for about 72 hours in medium supplemented with 10% FBS. […] Finally, the luminescence was measured by a PerkinElmer TopCount® Microplate Scintillation Counter. […]
For each record, check the reported IC50: if it is below 20 nM write criterion met, else write criterion not met.

>>> classification("CC(C)c1ccccc1[C@@H]1CN(Cc2ccc(F)c(F)c2)CCN1C1CC2(CCN(c3ccc(C(=O)NS(=O)(=O)c4ccc(NCC5CCOCC5)c([N+](=O)[O-])c4)c(N4c5cc6cc[nH]c6nc5O[C@H]5COCC[C@@H]54)c3)CC2)C1")
"criterion met"
>>> classification("Cc1ccccc1[C@@H]1CN([C@@H]2CCOc3c2ccc(F)c3F)CCN1C1CC2(CCN(c3ccc(C(=O)NS(=O)(=O)c4cc5c(c([N+](=O)[O-])c4)N[C@H](C4CCOCC4)CO5)c(N4c5cc6cc[nH]c6nc5O[C@H]5COCC[C@@H]54)c3)CC2)C1")
"criterion not met"
>>> classification("CC(C)Oc1ccccc1[C@@H]1CN([C@H](C)c2ccc(F)c(F)c2)CCN1C1CC2(CCN(c3ccc(C(=O)NS(=O)(=O)c4cc5c(c([N+](=O)[O-])c4)N[C@H](C4CCOCC4)CO5)c(N4c5cc6cc[nH]c6nc5O[C@H]5COCC[C@@H]54)c3)CC2)C1")
"criterion not met"
>>> classification("Cc1ccccc1[C@@H]1CN(Cc2cnc(N3CCOC[C@@H]3C)c(C)c2)CCN1C1CC2(CCN(c3ccc(C(=O)NS(=O)(=O)c4cc5c(c([N+](=O)[O-])c4)N[C@H](C4CCOCC4)CO5)c(N4c5cc6cc[nH]c6nc5O[C@H]5COCC[C@@H]54)c3)CC2)C1")
"criterion not met"
>>> classification("CC(C)Oc1ccccc1[C@H]1CN(C2CCC(N3CCOC[C@H]3C)CC2)CCN1C1CC2(CCN(c3ccc(C(=O)NS(=O)(=O)c4ccc(NCC5CCC(C)(O)CC5)c([N+](=O)[O-])c4)c(N4c5cc6cc[nH]c6nc5O[C@H]5COCC[C@@H]54)c3)CC2)C1 (some centres unmarked) [Example 160]")
"criterion not met"
>>> classification("COc1cc(CN2CCN(C3CC4(CCN(c5ccc(C(=O)NS(=O)(=O)c6cc7c(c([N+](=O)[O-])c6)N[C@H](C6CCOCC6)CO7)c(N6c7cc8cc[nH]c8nc7O[C@H]7COCC[C@@H]76)c5)CC4)C3)[C@H](c3ccccc3C(C)C)C2)cnc1N1CCOC[C@@H]1C")
"criterion met"
>>> classification("COc1cc(CN2CCN(C3CC4(CCN(c5ccc(C(=O)NS(=O)(=O)c6cc7c(c([N+](=O)[O-])c6)N[C@@H](C6CCC(C)(O)CC6)CO7)c(N6c7cc8cc[nH]c8nc7O[C@H]7COCC[C@@H]76)c5)CC4)C3)[C@@H](c3ccccc3OC(C)C)C2)cnc1N1CCOCC1 (some centres unmarked)")
"criterion met"
>>> classification("Cc1ccccc1[C@@H]1CN(C2CCN(C3CCOCC3)CC2)CCN1C1CC2(CCN(c3ccc(C(=O)NS(=O)(=O)c4cc5c(c([N+](=O)[O-])c4)N[C@H](C4CCOCC4)CO5)c(N4c5cc6cc[nH]c6nc5O[C@H]5COCC[C@@H]54)c3)CC2)C1")
"criterion not met"
